- System: 633275-114-R-J1-PDC complex spheroids, viability;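 also: spheroids exposed to the agents for seven days; percent of DMSO vehicle control viability which is 100%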
- Test Name: Anticancer human tumor 633275-114-R-J1-PDC patient-derived endometrial adenocarcinoma cell line growth inhibition [GQUAD]
- Experimental Conditions: second compound 0.1 µM; first compound 0.00316 µM; stronger effect = lower value
Assay Endpoint: viability, T/C

Any idea what viability, T/C was measured for CCc1c2c(nc3ccc(O)cc13)-c1cc3c(c(=O)n1C2)COC(=O)[C@]3(O)CC + Cc1cnc(CNC(=O)c2c(=O)c3ccc(N4CCCN(C)CC4)nc3n3c2sc2ccccc23)cn1 ?
36.2%

Give its viability, T/C value. Item: CCc1c2c(nc3ccc(O)cc13)-c1cc3c(c(=O)n1C2)COC(=O)[C@]3(O)CC + Cc1[nH]c2ccc(F)cc2c1-c1nc2c3cccnc3c3ncccc3c2[nH]1
47.1%

Now consider a different molecule.
Please give the measured viability, T/C for this molecule: Cn1ncnc1[C@H]1c2n[nH]c(=O)c3cc(F)cc(c23)N[C@@H]1c1ccc(F)cc1 + CN(C)c1ccc(Nc2c3ccc(NC(=O)CCN4CCCC4)cc3nc3cc(NC(=O)CCN4CCCC4)ccc23)cc1
101%
